# credit: ChEMBL document CHEMBL1649384

Test system: HT-29
procedureSummary: Cytotoxicity against human HT-29 cells after 72 hrs by MTT assay
Assay type: functional
experimentalParameters: HT-29, 72 h, read-out: LC50 (the source's name)
Recorded CC50, one value per entry.

Previously resolved entries follow.
>  <compound>
C[Se]/C(=N\C(=O)c1ccc2c(c1)OCO2)NC(=O)c1ccc2c(c1)OCO2

>  <CC50>
> 100 µM

$$$$
>  <compound>
C[Se]/C(=N\C(=O)c1c2ccccc2nc2ccccc12)NC(=O)c1c2ccccc2nc2ccccc12

>  <CC50>
> 100 µM

$$$$

Report CC50 for COc1cc([C@@H]2c3cc4c(cc3[C@@H](O[C@@H]3O[C@@H]5CO[C@@H](C)O[C@H]5[C@H](O)[C@H]3O)[C@H]3COC(=O)[C@H]23)OCO4)cc(OC)c1O [ETOPOSIDE] tested on HT-29. > 100 µM

Report CC50 for C[Se]/C(=N\C(=O)c1cccs1)NC(=O)c1cccs1 tested on HT-29. > 100 µM

Report CC50 for COc1cccc2c1C(=O)c1c(O)c3c(c(O)c1C2=O)C[C@@](O)(C(=O)CO)C[C@@H]3O[C@H]1C[C@H](N)[C@H](O)[C@H](C)O1 tested on HT-29. 25.4 µM
